- System: HCC-2998 colon
- protocol_summary: NCI-60 one-dose screen, 48 h (100 = growth as untreated, 0 = no growth, -100 = all killed)
- settings: 10 µM unless noted
The panel holds about 83,000 compounds, 20% with a hit somewhere; the sample as a whole holds those more often. The source made the active and inactive calls. The calls were made as follows: active = growth percent below 10; inactive = the rest.
property_name: growth

Param readout= growth; system= HCC-2998 colon; entry= Nc1n[nH]c2cc(F)c([C@@H]3Nc4ccc5[nH]ncc5c4[C@H]4C5CCC(C5)[C@@H]34)cc12 (stereo not given in full) ; returns value.
15.9% (inactive)

Recorded growth for CCC(=O)c1ccc(Cl)s1 with HCC-2998 colon, please?
102% (inactive)

Value wanted: growth (HCC-2998 colon) of entry CSc1nc(NCCN2CCOCC2)c(C#N)c(-c2cccc([N+](=O)[O-])c2)n1
112% (inactive)

Missing value: growth, HCC-2998 colon, entry C#CC(F)(F)[C@]1(O)CC[C@H]2[C@@H]3CCC4=CC(=O)CCC4=C3[C@@H](c3ccc(C(C)=O)cc3)C[C@@]21C . Fill in?
108% (inactive)

Fill in the recorded growth for this molecule, with HCC-2998 colon as test system: O=c1cc(CSc2nnc(SCc3cc(=O)oc4c3ccc3ccccc34)o2)c2ccc3ccccc3c2o1
101% (inactive)

Recall the recorded growth for CCn1c(O)c(/C=N/NC(=O)C(C)c2ccc(CC(C)C)cc2)sc1=S (stereo not given) with HCC-2998 colon and state it.
29.5% (inactive)

Provide value of growth for this record tested with HCC-2998 colon: Cc1nn(-c2cc(=O)[nH]c3ccc(Cl)cc23)c(N)c1C#N
102% (inactive)

Give the reported growth for CCCn1c(=O)[nH]c(N)c([C@H]2c3ccccc3Oc3[nH]c(=O)n(CCC)c(=O)c32)c1=O (system: HCC-2998 colon).
104% (inactive)

Given the entry COc1cccc(/C=C2\SC(=Nc3ccc(NC(C)=O)cc3)NC2=O)c1OC , what growth was observed with HCC-2998 colon?
101% (inactive)

Recorded growth for CSc1nc(Nc2cccc(NC(=O)/C(C#N)=C/c3c(Cl)cccc3Cl)c2)c(C#N)c(-c2cccc([N+](=O)[O-])c2)n1 with HCC-2998 colon, please?
60.8% (inactive)

Query the reported growth for HCC-2998 colon; item: O=C(N/N=C/c1c[nH]c2ccccc12)c1cc(-c2ccccc2)on1
92.9% (inactive)

API: value(readout=growth, system=HCC-2998 colon) for record C#CCOc1ccc2ncnc(Nc3cccc(CNC(=O)C=C)c3)c2c1
106% [8.25 µM] (inactive)

growth of COc1cc2nc(N3CCCC3)nc(NCc3ccccc3)c2cc1OC on HCC-2998 colon?
55.4% (inactive)

Entry CCCOc1cc2ccccc2cc1C(=O)Nc1nc(NC)c2c(ccc3nccc32)[nH]1 , system HCC-2998 colon: what growth was measured?
-70.5% (active)

Which growth is reported with HCC-2998 colon for this entry: CC(=O)OCCC/C(=C/c1cc2ccccc2c2ccccc12)[N+](=O)[O-] ?
-99.5% (active)

Please tell me: growth of O=C1Nc2cc(-c3ccc(O)cc3)ccc2/C1=C/c1ccc[nH]1 , system HCC-2998 colon?
-13.9% (active)

Query for HCC-2998 colon: what growth does the record show for COc1ccc(-c2cc(NC(=O)Nc3ccc4ncsc4c3)no2)cc1 ?
103% (inactive)

Requested read-out growth, target or system HCC-2998 colon, entry CC(=O)Nc1ccc(S(=O)(=O)Nc2cccc(-c3nc(-c4ccc(NC(=O)c5cccnc5)cc4Cl)no3)c2)cc1
69.1% (inactive)

Give HCC-2998 colon growth for O=C1C=C(OCC=C(Cl)Cl)C(=O)c2ccccc21
112% (inactive)

Quick check: growth on HCC-2998 colon, item CCN(CC)c1ccc2c(c1)Oc1nc(N)c(C#N)c(N)c1C2Sc1ccc(SC)cc1 (stereo not given) ?
-72.2% (active)
